system: Acinetobacter baumannii; assay: Antibacterial activity against Acinetobacter baumannii ATCC 19606 assessed as zone of inhibition by disc diffusion method; type: functional; further: test concentration or dose not given here
Overview of reported diameter of the inhibition zone (DIZ) across a group of compounds:
Measure name: diameter of the inhibition zone (DIZ)

{"Compound": "c1ccc(CSSc2ccccn2)cc1", "Result value": "9 mm"}
{"Compound": "CCC(C)SSc1ccccn1 (centres undefined)", "Result value": "0 mm"}
{"Compound": "CSSc1ccccn1", "Result value": "21 mm"}
{"Compound": "CC(C)CSSc1ccccn1", "Result value": "0 mm"}
{"Compound": "O=C(O)CCSSc1ccccn1", "Result value": "0 mm"}
{"Compound": "c1ccc(SSC2CCCCC2)nc1", "Result value": "0 mm"}
{"Compound": "CCCCSSc1ccccn1", "Result value": "0 mm"}
{"Compound": "CC(C)SSc1ccccn1", "Result value": "0 mm"}
{"Compound": "CCCCCCSSc1ccccn1", "Result value": "0 mm"}
{"Compound": "CC(C)C(C)SSc1ccccn1 (centres undefined)", "Result value": "0 mm"}
{"Compound": "CCCCCCCSSc1ccccn1", "Result value": "0 mm"}
{"Compound": "CCCCCSSc1ccccn1", "Result value": "0 mm"}
{"Compound": "CCSSc1ccccn1", "Result value": "18 mm"}
{"Compound": "CCCCCCCCCSSc1ccccn1", "Result value": "0 mm"}
{"Compound": "CCCCCCCCCCSSc1ccccn1", "Result value": "0 mm"}
{"Compound": "CCCSSc1ccccn1", "Result value": "12 mm"}
{"Compound": "CCCCCCCCSSc1ccccn1", "Result value": "0 mm"}
{"Compound": "c1ccc(SSC2CCCC2)nc1", "Result value": "0 mm"}
{"Compound": "CC(C)CCSSc1ccccn1", "Result value": "0 mm"}

----------
Overview of reported diameter of the inhibition zone (DIZ) across a group of compounds:
test system: Staphylococcus aureus; assay: Antibacterial activity against methicillin-susceptible Staphylococcus aureus ATCC 25923 assessed as zone of inhibition by disc diffusion method; type: functional; further: test concentration or dose not given here
Measure name: diameter of the inhibition zone (DIZ) (mm)

{"Compound": "CSSc1ccccn1", "System": "Staphylococcus aureus", "Measure name": "diameter of the inhibition zone (DIZ)", "Sign": "=", "Result value": 20}
{"Compound": "CN[C@H](CC(C)C)C(=O)N[C@H]1C(=O)N[C@@H](CC(N)=O)C(=O)N[C@H]2C(=O)N[C@H]3C(=O)N[C@H](C(=O)N[C@H](C(=O)O)c4cc(O)cc(O)c4-c4cc3ccc4O)[C@H](O)c3ccc(c(Cl)c3)Oc3cc2cc(c3O[C@@H]2O[C@H](CO)[C@@H](O)[C@H](O)[C@H]2O[C@H]2C[C@](C)(N)[C@H](O)[C@H](C)O2)Oc2ccc(cc2Cl)[C@H]1O", "System": "Staphylococcus aureus", "Measure name": "diameter of the inhibition zone (DIZ)", "Sign": "=", "Result value": 22}
{"Compound": "CCCCCCSSc1ccccn1", "System": "Staphylococcus aureus", "Measure name": "diameter of the inhibition zone (DIZ)", "Sign": "=", "Result value": 47}
{"Compound": "CC(C)SSc1ccccn1", "System": "Staphylococcus aureus", "Measure name": "diameter of the inhibition zone (DIZ)", "Sign": "=", "Result value": 0}
{"Compound": "CCCCCCCSSc1ccccn1", "System": "Staphylococcus aureus", "Measure name": "diameter of the inhibition zone (DIZ)", "Sign": ">", "Result value": 50}
{"Compound": "CC(C)C(C)SSc1ccccn1 (stereo unspecified)", "System": "Staphylococcus aureus", "Measure name": "diameter of the inhibition zone (DIZ)", "Sign": "=", "Result value": 0}
{"Compound": "CC(C)CSSc1ccccn1", "System": "Staphylococcus aureus", "Measure name": "diameter of the inhibition zone (DIZ)", "Sign": "=", "Result value": 0}
{"Compound": "CC(C)CCSSc1ccccn1", "System": "Staphylococcus aureus", "Measure name": "diameter of the inhibition zone (DIZ)", "Sign": "=", "Result value": 0}
{"Compound": "CCCCCCCCCSSc1ccccn1", "System": "Staphylococcus aureus", "Measure name": "diameter of the inhibition zone (DIZ)", "Sign": "=", "Result value": 20}
{"Compound": "CCSSc1ccccn1", "System": "Staphylococcus aureus", "Measure name": "diameter of the inhibition zone (DIZ)", "Sign": "=", "Result value": 13}
{"Compound": "CCCSSc1ccccn1", "System": "Staphylococcus aureus", "Measure name": "diameter of the inhibition zone (DIZ)", "Sign": "=", "Result value": 0}

Values compiled from ChEMBL document CHEMBL4715813.
